target: UniProtKB Q14164
Sequence (Q14164 whole entry, species assumed): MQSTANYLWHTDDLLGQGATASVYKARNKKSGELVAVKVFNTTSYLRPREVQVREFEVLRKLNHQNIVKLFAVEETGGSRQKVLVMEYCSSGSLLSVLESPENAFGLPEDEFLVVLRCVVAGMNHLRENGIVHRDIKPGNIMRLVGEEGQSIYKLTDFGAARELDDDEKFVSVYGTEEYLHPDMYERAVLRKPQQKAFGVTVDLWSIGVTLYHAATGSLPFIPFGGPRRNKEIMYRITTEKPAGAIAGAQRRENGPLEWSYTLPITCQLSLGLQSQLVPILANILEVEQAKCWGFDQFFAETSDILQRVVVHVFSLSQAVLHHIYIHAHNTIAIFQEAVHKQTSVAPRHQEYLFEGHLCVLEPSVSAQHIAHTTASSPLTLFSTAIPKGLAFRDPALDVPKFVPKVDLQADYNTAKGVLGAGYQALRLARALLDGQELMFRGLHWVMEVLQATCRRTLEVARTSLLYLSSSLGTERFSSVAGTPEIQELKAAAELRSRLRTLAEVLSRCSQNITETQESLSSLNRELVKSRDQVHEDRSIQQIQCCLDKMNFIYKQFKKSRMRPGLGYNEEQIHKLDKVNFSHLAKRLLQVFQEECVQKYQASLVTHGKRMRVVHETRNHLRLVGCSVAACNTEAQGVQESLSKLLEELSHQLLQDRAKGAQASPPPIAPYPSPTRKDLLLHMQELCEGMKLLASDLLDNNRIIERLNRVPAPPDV
pIC50: −log10 of the molar value. Counter-ions that a name gives are not always drawn.
parameter: pIC50

Worked set:
# compound, parameter, valueMeasured
rows = [
    ("COc1nc(Nc2cc(-c3ccc(OC4CCN(C)CC4)c(C#N)c3)ncn2)ccc1N1CCN(C)CC1", "pIC50", "6.00 to 7.00"),
    ("COc1nc(Nc2cc(-c3ccc(O[C@H]4CCN(C(=O)CO)CC4(F)F)c(C#N)c3)ncn2)ccc1N1CCN(C)CC1", "pIC50", "> 7.00"),
    ("COc1nc(Nc2cc(-c3ccc(OC4CCOCC4)c(C#N)c3)ncn2)ccc1C1CCN(C)C1 (centres unmarked)", "pIC50", "> 7.00"),
    ("COc1nc(Nc2cc(-c3ccc(OC4CCN(C)CC4)c(C#N)c3)ncn2)ccc1C(=O)N(C)C", "pIC50", "5.30 to 6.00"),
]

pIC50 value, target or system UniProtKB Q14164, for COc1nc(Nc2cc(-c3ccc(OC4CCN(C(=O)c5n[nH]c(C)n5)CC4)c(C#N)c3)ncn2)ccc1C(=O)N(C)C : > 7.00

Response field pIC50 (UniProtKB Q14164) for item COc1nc(Nc2cc(-c3ccc(O[C@H]4CCN(C(=O)c5cnn[nH]5)C[C@H]4F)c(C#N)c3)ncn2)ccc1N1CCN(C2COC2)CC1 : > 7.00

Lab entry: UniProtKB Q14164 assay, compound COc1nc(Nc2cc(-c3ccc(OC4CCN(C(=O)CO)CC4(F)F)c(C#N)c3)ncn2)ccc1C(=O)N(C)C (centres unmarked) , pIC50 = > 7.00

Record for COc1nc(Nc2cc(-c3ccc(OC4CCOCC4)c(C#N)c3)ncn2)ccc1C(=O)N1C2CCCC1COC2 under target or system UniProtKB Q14164: pIC50 reported as > 7.00

Value sought: pIC50, system UniProtKB Q14164, item COc1nc(Nc2cc(-c3ccc(OC4CCOCC4)c(C#N)c3)ncn2)ccc1C(=O)NCCO . Result: > 7.00

Measured on UniProtKB Q14164, COc1nc(Nc2cc(-c3ccc(OC4CCN(C(=O)[C@H](C)O)CC4(F)F)c(C#N)c3)ncn2)ccc1N1CCN(C)C[C@H]1C (some centres unmarked) [Example 65, hydrochloride] has a documented pIC50 of > 7.00

COc1nc(Nc2cc(-c3ccc(OC4CCNCC4(F)F)c(C#N)c3)ncn2)ccc1N1CCN(C)[C@@H](C)C1 (some centres unmarked) tested on UniProtKB Q14164 gave pIC50: > 7.00

Log: UniProtKB Q14164, compound COc1nc(Nc2cc(-c3ccc(OC4CCN(C(=O)[C@H](C)O)CC4(F)F)c(C#N)c3)ncn2)ccc1N1CCN(C)[C@H](C)C1 (some centres unmarked) [Example 74, hydrochloride] , pIC50 = > 7.00

Known value: UniProtKB Q14164 pIC50 of the compound C[C@@H](O)C(=O)N1CCC(Oc2ccc(-c3cc(Nc4ccc(N5CCN(C6COC6)CC5)cc4)ncn3)cc2C#N)C(F)(F)C1 (some centres unmarked) equals 6.00 to 7.00

Reported UniProtKB Q14164 pIC50 for item COc1nc(Nc2cc(-c3ccc(OC4CCOCC4)c(C#N)c3)ncn2)ccc1N(C)CCN(C)C was > 7.00
